Tested on: RS4;11 (BCL-2 dependent acute lymphoblastic leukemia cell line)
Test: RS4;11 Cell Proliferation Assay
Format: cell-based
Settings: Homo sapiens, RS4-11, RS4;11 cells, read-out: Cellular proliferation assay (IC50, nM) RS4
Please respond with reported IC50 for every item in the list.
// units = nM; emit number, no label

Find the measured IC50: item C#Cc1cc(CN2CCN(C3CC4(CCN(c5ccc(C(=O)NS(=O)(=O)c6ccc(NC[C@H]7CC[C@](C)(O)CC7)c([N+](=O)[O-])c6)c(Oc6cnc7[nH]ccc7c6)c5)CC4)C3)C(c3ccccc3C(C)C)C2)ccc1OC (stereo partly shown) , target or system RS4;11 (BCL-2 dependent acute lymphoblastic leukemia cell line). 0.53

Query `COc1ccc(CN2CCN(C3CC4(CCN(c5ccc(C(=O)NS(=O)(=O)c6ccc(NC[C@H]7CC[C@](C)(O)CC7)c([N+](=O)[O-])c6)c(Oc6cnc7[nH]ccc7c6)c5)CC4)C3)[C@H](c3ccccc3C(C)C)C2)cn1` next 0.14

Query `COc1cc(CN2CCN(C3CC4(CCN(c5ccc(C(=O)NS(=O)(=O)c6ccc(NC[C@H]7CC[C@](C)(O)CC7)c([N+](=O)[O-])c6)c(Oc6cnc7[nH]cc(F)c7c6)c5)CC4)C3)[C@H](c3ccccc3C(C)C)C2)ccc1Cl` next 0.15

Query CC(C)c1ccccc1C1CN(S(=O)(=O)c2ccccc2)CCN1C1CC2(CCN(c3ccc(C(=O)NS(=O)(=O)c4ccc(NC[C@H]5CC[C@](C)(O)CC5)c([N+](=O)[O-])c4)c(Oc4cnc5[nH]ccc5c4)c3)CC2)C1 (stereo partly shown) next 2.4

Query `COc1cc(CN2CCN(C3CC4(C3)CN(c3ccc(C(=O)NS(=O)(=O)c5ccc(NC[C@H]6CC[C@](C)(O)CC6)c([N+](=O)[O-])c5)c(Oc5cnc6[nH]cc(F)c6c5)c3)C4)[C@H](c3ccccc3C(C)C)C2)ccc1OC(C)C` next 0.16

Query COCCN1CCN(C2CC3(CCN(c4ccc(C(=O)NS(=O)(=O)c5ccc(NC[C@H]6CC[C@](C)(O)CC6)c([N+](=O)[O-])c5)c(Oc5cnc6[nH]ccc6c5)c4)CC3)C2)C(c2ccccc2C(C)C)C1 (stereo partly shown) next 0.7

Query COc1ccc(CN2CCN(C3CC4(C3)CN(c3ccc(C(=O)NS(=O)(=O)c5ccc(NCC67CC8CC(C6)C(OC)C(C8)C7)c([N+](=O)[O-])c5)c(Oc5cnc6[nH]cc(F)c6c5)c3)C4)[C@H](c3ccccc3C(C)C)C2)cc1 (stereo partly shown) next 0.31
